# system: collagen (Gallus gallus, UniProt P02457+P02467)
# Construct: collagen obtained by grinding and deliming the bone of a spring chicken; from tissue; host or cells: bone of a spring chicken, ground and delimed (demineralised)
# Sequence (P02467 78-1363): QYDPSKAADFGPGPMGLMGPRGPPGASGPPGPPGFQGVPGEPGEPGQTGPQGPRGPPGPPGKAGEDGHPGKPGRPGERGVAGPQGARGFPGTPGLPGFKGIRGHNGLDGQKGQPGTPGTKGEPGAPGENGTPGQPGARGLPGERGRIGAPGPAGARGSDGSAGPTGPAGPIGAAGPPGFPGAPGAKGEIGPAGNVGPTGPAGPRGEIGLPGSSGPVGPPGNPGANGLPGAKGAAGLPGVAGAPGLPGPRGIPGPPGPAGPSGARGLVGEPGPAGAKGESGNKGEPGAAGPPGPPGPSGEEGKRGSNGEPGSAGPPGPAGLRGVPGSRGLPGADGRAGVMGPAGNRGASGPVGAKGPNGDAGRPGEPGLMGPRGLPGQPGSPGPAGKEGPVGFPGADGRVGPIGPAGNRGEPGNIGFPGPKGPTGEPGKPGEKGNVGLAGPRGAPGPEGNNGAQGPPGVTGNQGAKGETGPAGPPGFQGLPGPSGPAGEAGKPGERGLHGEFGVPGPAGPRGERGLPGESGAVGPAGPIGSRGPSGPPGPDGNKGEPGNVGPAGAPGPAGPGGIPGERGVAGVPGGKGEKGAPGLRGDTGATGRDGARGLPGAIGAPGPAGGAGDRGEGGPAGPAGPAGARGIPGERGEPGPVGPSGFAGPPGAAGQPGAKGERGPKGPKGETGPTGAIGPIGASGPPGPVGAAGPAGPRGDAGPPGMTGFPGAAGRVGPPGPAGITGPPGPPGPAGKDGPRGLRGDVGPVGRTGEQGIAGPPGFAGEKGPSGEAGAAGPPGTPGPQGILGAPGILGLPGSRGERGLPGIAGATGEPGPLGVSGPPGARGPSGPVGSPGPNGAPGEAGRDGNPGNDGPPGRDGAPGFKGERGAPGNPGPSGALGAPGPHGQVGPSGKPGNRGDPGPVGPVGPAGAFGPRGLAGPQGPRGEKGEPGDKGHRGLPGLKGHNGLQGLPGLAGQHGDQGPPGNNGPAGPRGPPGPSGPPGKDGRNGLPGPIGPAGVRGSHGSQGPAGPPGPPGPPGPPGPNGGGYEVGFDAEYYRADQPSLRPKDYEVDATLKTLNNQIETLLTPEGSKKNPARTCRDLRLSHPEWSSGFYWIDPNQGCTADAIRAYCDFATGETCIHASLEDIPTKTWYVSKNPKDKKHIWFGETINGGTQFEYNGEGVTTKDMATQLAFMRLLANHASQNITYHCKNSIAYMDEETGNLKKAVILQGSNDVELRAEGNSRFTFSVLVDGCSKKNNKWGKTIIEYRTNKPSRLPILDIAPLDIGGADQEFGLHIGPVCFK
# Sequence (P02457 152-1207): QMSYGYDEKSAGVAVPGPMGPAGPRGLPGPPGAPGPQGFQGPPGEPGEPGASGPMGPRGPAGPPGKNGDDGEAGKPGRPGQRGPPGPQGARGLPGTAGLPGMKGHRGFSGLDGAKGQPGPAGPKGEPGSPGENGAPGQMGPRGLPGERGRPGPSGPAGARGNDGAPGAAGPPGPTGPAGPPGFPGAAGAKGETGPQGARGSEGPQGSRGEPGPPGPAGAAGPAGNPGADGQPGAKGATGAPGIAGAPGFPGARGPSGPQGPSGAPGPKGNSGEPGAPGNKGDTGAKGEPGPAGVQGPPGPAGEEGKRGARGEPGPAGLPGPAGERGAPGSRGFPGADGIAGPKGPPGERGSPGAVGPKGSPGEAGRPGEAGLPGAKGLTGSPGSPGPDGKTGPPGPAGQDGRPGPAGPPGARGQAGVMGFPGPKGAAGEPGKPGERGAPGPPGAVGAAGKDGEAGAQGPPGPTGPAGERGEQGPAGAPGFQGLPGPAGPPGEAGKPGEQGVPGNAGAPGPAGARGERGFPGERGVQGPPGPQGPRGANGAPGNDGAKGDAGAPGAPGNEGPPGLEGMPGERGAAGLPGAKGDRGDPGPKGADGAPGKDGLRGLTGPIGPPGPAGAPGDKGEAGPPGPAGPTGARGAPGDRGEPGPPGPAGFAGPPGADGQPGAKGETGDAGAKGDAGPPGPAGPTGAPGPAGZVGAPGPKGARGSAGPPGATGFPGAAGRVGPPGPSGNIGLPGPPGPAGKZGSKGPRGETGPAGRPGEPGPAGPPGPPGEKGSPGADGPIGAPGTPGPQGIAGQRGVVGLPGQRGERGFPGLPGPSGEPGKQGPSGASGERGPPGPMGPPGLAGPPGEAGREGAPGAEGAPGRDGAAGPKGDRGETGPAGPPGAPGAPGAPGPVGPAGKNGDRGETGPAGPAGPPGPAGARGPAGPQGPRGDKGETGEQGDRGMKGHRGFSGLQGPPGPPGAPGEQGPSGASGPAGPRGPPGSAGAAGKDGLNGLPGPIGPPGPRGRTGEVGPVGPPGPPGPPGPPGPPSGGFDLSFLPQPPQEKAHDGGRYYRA
# Assay type: biochemical, spring chicken
# condition_set: silicon compound 0.05 %; collagen 100 mg, glucose 0.2 M, pH 7.4, 37 C, 4 weeks; solubilized by cutting with CNBr
Known Soluble collagen (%) of a selection of compounds
value_type: Soluble collagen (%)

> print(dat)
              input.smiles                                    system  measured.value
1      O[Si](O)(O)c1ccccc1  collagen (Gallus gallus, UniProt P02457+P02467)              72
2      O[Si](O)(O)C1CCCCC1  collagen (Gallus gallus, UniProt P02457+P02467)              73
3  C[Si](O)(O)O[Si](C)(O)O  collagen (Gallus gallus, UniProt P02457+P02467)              75
4  CCCCCCCCCCCC[Si](O)(O)O  collagen (Gallus gallus, UniProt P02457+P02467)              72
